These measurements were taken from ChEMBL document CHEMBL3400016.

protocolText: Cytotoxicity against human HepG 2.2.15 cells by MTT assay
Format: cell-based, HepG2 2.2.15
reportedMetric: CC50

// query Fill blank: measured CC50 of the molecule CC(=O)c1ccc(OC(=O)/C=C/c2ccccc2)cc1 is ____.
// result > 2870 µM

// query Recorded CC50 of COc1cccc(/C=C/C(=O)Oc2ccc(C(C)=O)cc2)c1 , please.
// result > 2780 µM

// query Please report the recorded CC50 for CC(=O)c1ccc(OC(=O)c2ccco2)cc1 .
// result > 4050 µM

// query CC50 for COc1cccc(/C=C/C(=O)OC[C@H]2O[C@@H](Oc3ccc(C(C)=O)cc3)[C@H](O)[C@@H](O)[C@@H]2O)c1 ?
// result > 1520 µM

// query Reported CC50, molecule CC(=O)c1ccc(O[C@@H]2O[C@H](COC(=O)/C=C/c3ccccc3)[C@@H](O)[C@H](O)[C@H]2O)cc1 : ____
// result > 1740 µM

// query Look up CC50 for this molecule: COc1ccc(/C=C/C(=O)Oc2ccc(C(C)=O)cc2)cc1
// result > 3280 µM

// query Reported CC50, molecule CC(=O)c1ccc(O[C@@H]2O[C@H](COC(=O)c3cccnc3)[C@@H](O)[C@H](O)[C@H]2O)cc1 : ____
// result > 1650 µM

// query Would you kindly share the measured CC50 for COc1cc(/C=C/C(=O)Oc2ccc(C(C)=O)cc2)cc(OC)c1OC ?
// result > 2420 µM

// query Given CC(=O)c1ccc(OC(=O)/C=C/c2ccc(F)cc2)cc1 , state its recorded CC50.
// result > 3310 µM

// query Record request: CC50 value, item CC(=O)c1ccc(OC(=O)c2cccs2)cc1
// result > 3710 µM

// query What CC50 value was documented for this molecule, CC(=O)c1ccc(OC(=O)/C=C/c2ccc3c(c2)OCO3)cc1 ?
// result > 3040 µM

// query Dear colleague, I am looking for the recorded CC50 of the following molecule: CC(=O)c1ccc(O[C@@H]2O[C@H](CO[C@@H]3OC[C@@H](O)[C@H](O)[C@H]3O)[C@@H](O)[C@H](O)[C@H]2O)cc1
// result > 2600 µM

// query Consider the molecule shown here: CC(=O)c1ccc(O[C@@H]2O[C@H](COC(=O)/C=C/c3ccc4c(c3)OCO4)[C@@H](O)[C@H](O)[C@H]2O)cc1 What is its recorded CC50?
// result > 1470 µM

// query Suppose we examine the molecule CC(=O)c1ccc(OC(=O)c2ccccc2)cc1 ; what CC50 value has been reported?
// result > 3350 µM

// query I would be grateful if you could share the reported CC50 for CC(=O)c1ccc(OC(=O)/C=C/c2ccc(F)c(F)c2)cc1 .
// result > 2600 µM

// query Entry CC(=O)c1ccc(OC(=O)/C=C/c2cccc(F)c2)cc1 has what CC50?
// result > 3110 µM

// query Which CC50 value is on record for COc1ccc(/C=C/C(=O)Oc2ccc(C(C)=O)cc2)cc1OC ?
// result > 2620 µM
